- TARGET_DESC: huCD28 (human, UniProt P10747 19-152, limits assumed)
- METHOD_SUMMARY: SPR, OAA format
Classify by measured Fold-change from WT: Y if it is equal to or exceeds 0.7 fold, N if it is smaller.

BINDER	CLASSIFICATION
v37876 (antibody, V domains shown, OAA format as v34891; also called huTN228 S1069A (VL) OAA) VH: QVQLQESGPGLVKPSETLSLTCAVSGFSLTSYGVHWIRQPPGKGLEWLGVIWPGGGTNFNSALMSRLTISEDTSKNQVSLKLSSVTAADTAVYYCARDRAYGNYLYAMDYWGQGTLVTVSS VL: DIQMTQSPSSLSASVGDRVTITCRASESVEYYVTSLMQWYQQKPGKAPKLLIYAASNVDAGVPSRFSGSGSGTDFTLTISSLQPEDIATYYCQQSRKVPFTFGGGTKVEIK	N
v37870 (antibody, V domains shown, OAA format as v34891; also called huTN228 T1036A (VL) OAA) VH: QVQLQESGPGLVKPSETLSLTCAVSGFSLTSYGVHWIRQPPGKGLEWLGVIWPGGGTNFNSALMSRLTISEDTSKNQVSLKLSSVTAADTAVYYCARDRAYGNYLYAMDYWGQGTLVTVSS VL: DIQMTQSPSSLSASVGDRVTITCRASESVEYYVASLMQWYQQKPGKAPKLLIYAASNVDSGVPSRFSGSGSGTDFTLTISSLQPEDIATYYCQQSRKVPFTFGGGTKVEIK	Y
v37845 (antibody, V domains shown, OAA format; also called huTN228 Y1037A (VH) OAA) VH: QVQLQESGPGLVKPSETLSLTCAVSGFSLTSAGVHWIRQPPGKGLEWLGVIWPGGGTNFNSALMSRLTISEDTSKNQVSLKLSSVTAADTAVYYCARDRAYGNYLYAMDYWGQGTLVTVSS VL: DIQMTQSPSSLSASVGDRVTITCRASESVEYYVTSLMQWYQQKPGKAPKLLIYAASNVDSGVPSRFSGSGSGTDFTLTISSLQPEDIATYYCQQSRKVPFTFGGGTKVEIK	Y
v37847 (antibody, V domains shown, OAA format; also called huTN228 P1058A (VH) OAA) VH: QVQLQESGPGLVKPSETLSLTCAVSGFSLTSYGVHWIRQPPGKGLEWLGVIWAGGGTNFNSALMSRLTISEDTSKNQVSLKLSSVTAADTAVYYCARDRAYGNYLYAMDYWGQGTLVTVSS VL: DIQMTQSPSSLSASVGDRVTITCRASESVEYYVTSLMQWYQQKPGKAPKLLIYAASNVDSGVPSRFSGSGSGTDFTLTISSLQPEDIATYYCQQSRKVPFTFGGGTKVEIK	Y
v37882 (antibody, V domains shown, OAA format as v34891; also called huTN228 S1036T (VH) OAA) VH: QVQLQESGPGLVKPSETLSLTCAVSGFSLTTYGVHWIRQPPGKGLEWLGVIWPGGGTNFNSALMSRLTISEDTSKNQVSLKLSSVTAADTAVYYCARDRAYGNYLYAMDYWGQGTLVTVSS VL: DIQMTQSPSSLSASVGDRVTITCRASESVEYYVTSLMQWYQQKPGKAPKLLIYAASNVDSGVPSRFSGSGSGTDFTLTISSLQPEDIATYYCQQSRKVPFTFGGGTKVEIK	N
